test system: hsa-mir-374a loop; experiment: normalised indicator fluorescence (fraction of RNA + indicator signal without compound); higher = less displacement of indicator (weaker competition); conditions: compound concentration: 5 uM; 30 min; indicator: TO-PRO-1 0.1 uM; RNA concentration: 0.1 uM
property_label: normalised indicator fluorescence
# output: bare number, no unit

[[record]]
molecule = "O=C(O)C(O)Cc1ccc(O)c(O)c1 (centres undefined) [Sodium Danshensu]"
property_label = "normalised indicator fluorescence"
reading = 1.07

[[record]]
molecule = "O=C(Nc1nc2ccc(NC(=O)C34CC5CC(CC(C5)C3)C4)cc2s1)c1ccccc1"
property_label = "normalised indicator fluorescence"
reading = 1.1

[[record]]
molecule = "CC(C)c1cc(-c2n[nH]c(=O)n2-c2ccc3c(ccn3C)c2)c(O)cc1O [Ganetespib]"
property_label = "normalised indicator fluorescence"
reading = 1.07

[[record]]
molecule = "CCc1oc2ccccc2c1C(=O)c1cc(Br)c(O)c(Br)c1 [Benzbromarone]"
property_label = "normalised indicator fluorescence"
reading = 1.16

[[record]]
molecule = "COc1nccnc1NS(=O)(=O)c1ccc(NC(=O)/C=C/c2ccc([N+](=O)[O-])s2)cc1 [Necrosulfonamide]"
property_label = "normalised indicator fluorescence"
reading = 1.05


Lab note: need normalised indicator fluorescence for CNc1ccc([N+](=O)[O-])c(Nc2ccc3[nH]ncc3c2)n1 on hsa-mir-374a loop, anyone have it? 1.1

Would you mind doing CC(=O)CCCCn1c(=O)c2c(ncn2C)n(C)c1=O [Pentoxifylline] as well? 1.04

Would you mind doing Oc1ccc(OC2CCCCO2)cc1 (centres undefined) [Deoxyarbutin] as well? 1.03

Would you mind doing NC(=O)c1ccc(N(C(N)=O)c2c(F)cccc2F)nc1-c1ccc(F)cc1F as well? 1.15

----------
test system: hsa-mir-374a loop; assay: normalised indicator fluorescence (fraction of RNA + indicator signal without compound); higher = less displacement of indicator (weaker competition); settings: compound concentration: 5 uM; 30 min; indicator: TO-PRO-1 0.1 uM; RNA concentration: 0.1 uM
Readings of normalised indicator fluorescence for the listed compounds
# output: bare number, no unit

[[record]]
compound = "O=C(O)CCc1ccc(O)cc1O [Hydroumbellic acid]"
reading = 1.1

[[record]]
compound = "Cc1c(C)c2c(c(C)c1O)CCC(C)(C(=O)O)O2 (stereo not given)"
reading = 1.11


What does the record list as normalised indicator fluorescence for Cc1cc(NC(=O)c2cccc(NC(=O)/C=C/CN(C)C)c2)ccc1Nc1nccc(-c2cccnc2)n1 ? 1.08

Would you mind doing O=C1C[C@@H](c2ccc(O)cc2)Oc2cc(O)cc(O)c21 as well? 1.17

Would you mind doing CC(=O)Oc1c(C)c(C)c2c(c1C)CCC(C)(CCC[C@H](C)CCC[C@H](C)CCCC(C)C)O2 (stereo not given in full) [Vitamin E Acetate] as well? 1.01

----------
test system: hsa-mir-374a loop; test: normalised indicator fluorescence (fraction of RNA + indicator signal without compound); higher = less displacement of indicator (weaker competition); settings: compound concentration: 5 uM; 30 min; indicator: TO-PRO-3 0.5 uM; RNA concentration: 0.5 uM
Readings of normalised indicator fluorescence for the listed compounds
# output: bare number, no unit

[[record]]
compound = "CNC(=O)c1ccc(C)c(-n2c(C)cc(OCc3ccc(F)cc3F)c(Br)c2=O)c1"
target = "hsa-mir-374a loop"
reading = 1.08


What does the record list as normalised indicator fluorescence for Oc1cc(O)c2c(c1)O[C@H](c1ccc(O)c(O)c1)[C@@H](O)C2 [Cianidanol] ? 1.17

Would you mind doing O=C(O)/C=C/c1ccc(Cn2ccnc2)cc1 [Ozagrel] as well? 1.19

Would you mind doing O=C(Nc1nc2ccc(NC(=O)C34CC5CC(CC(C5)C3)C4)cc2s1)c1ccccc1 as well? 1.06

Would you mind doing CC1(C)OC(=O)C=C[C@]2(C)[C@H]3CC[C@@]4(C)[C@H](c5ccoc5)OC(=O)[C@H]5O[C@]54[C@]3(C)C(=O)C[C@@H]12 [Obacunone] as well? 1.09

Would you mind doing O=C(NC(Cc1cc(=O)[nH]c2ccccc12)C(=O)O)c1ccc(Cl)cc1 (centres undefined) [Rebamipide] as well? 1.13

Would you mind doing NC(=O)N/N=C/c1ccc([N+](=O)[O-])o1 [Furacilin] as well? 1.16

Would you mind doing C[S+]([O-])c1ccc(-c2nc(-c3ccc(F)cc3)c(-c3ccncc3)[nH]2)cc1 (centres undefined) as well? 1.04

Would you mind doing O=CN1CC/C(=C/c2ccc3c(c2)OCO3)C1=O as well? 1.08

----------
test system: hsa-mir-221 loop; test: normalised indicator fluorescence (fraction of RNA + indicator signal without compound); higher = less displacement of indicator (weaker competition); conditions: compound concentration: 5 uM; 30 min; indicator: TO-PRO-3 0.5 uM; RNA concentration: 0.5 uM
Readings of normalised indicator fluorescence for the listed compounds
# output: bare number, no unit

As a guide, the following entries are already answered.
[[record]]
compound = "CC(=O)c1ccc(S(=O)(=O)NC(=O)NC2CCCCC2)cc1 [Acetohexamide]"
property_label = "normalised indicator fluorescence"
reading = 1.05

[[record]]
compound = "COC1=C(OC)C(=O)C(CCCCCCCCCCO)=C(C)C1=O"
property_label = "normalised indicator fluorescence"
reading = 1.04

[[record]]
compound = "CC1(C)C=Cc2c(ccc3c2OC[C@@H](c2ccc(O)cc2O)C3)O1"
property_label = "normalised indicator fluorescence"
reading = 1

[[record]]
compound = "COC(=O)c1ccc([C@H]2c3[nH]c4ccccc4c3C[C@H](C(=O)OC)N2C(=O)CCl)cc1"
property_label = "normalised indicator fluorescence"
reading = 1.09

[[record]]
compound = "CCc1oc2ccccc2c1C(=O)c1cc(Br)c(O)c(Br)c1"
property_label = "normalised indicator fluorescence"
reading = 1.09


What does the record list as normalised indicator fluorescence for O=C(NC(Cc1cc(=O)[nH]c2ccccc12)C(=O)O)c1ccc(Cl)cc1 (centres undefined) [Rebamipide] ? 1.04

Would you mind doing Oc1ccc(OCc2ccccc2)cc1 as well? 1.17

Would you mind doing CC1=C[C@]2(O)O[C@@]3(CC2=C(C)C)[C@@H](C)CC[C@@H]13 as well? 1.31

Would you mind doing Oc1ccc(-c2nc(-c3ccc(F)cc3)c(-c3ccncc3)[nH]2)cc1 as well? 1.13

----------
system: hsa-mir-6850 loop; assay: normalised indicator fluorescence (fraction of RNA + indicator signal without compound); higher = less displacement of indicator (weaker competition); conditions: compound concentration: 5 uM; 30 min; indicator: TO-PRO-3 0.5 uM; RNA concentration: 0.5 uM
Where a name gives a salt, the structure may show the parent alone.
property_label: normalised indicator fluorescence
# output: bare number, no unit

As a guide, the following entries are already answered.
[[record]]
compound = "C[C@H]1[C@H](C)CC[C@]2(C(=O)O[C@@H]3O[C@H](CO[C@@H]4O[C@H](CO)[C@@H](O[C@@H]5O[C@H](C)[C@H](O)[C@@H](O)[C@H]5O)[C@H](O)[C@H]4O)[C@@H](O)[C@H](O)[C@H]3O)CC[C@]3(C)C(=CC[C@@H]4[C@@]5(C)C[C@@H](O)[C@H](O)[C@@](C)(CO)[C@@H]5CC[C@]43C)[C@H]12 [Asiaticoside]"
reading = 1.11

[[record]]
compound = "C[C@@H]1O[C@@H](O[C@H]2[C@H](Oc3cc(O)c4c(c3)O[C@H](c3ccc(O)cc3)CC4=O)O[C@H](CO)[C@@H](O)[C@@H]2O)[C@H](O)[C@H](O)[C@H]1O"
reading = 1.09

[[record]]
compound = "N=C(NCCCCCCNC(=N)NC(=N)Nc1ccc(Cl)cc1)NC(=N)Nc1ccc(Cl)cc1 [Chlorhexidine hydrochloride]"
reading = 1.04

[[record]]
compound = "O=C(NC(Cc1cc(=O)[nH]c2ccccc12)C(=O)O)c1ccc(Cl)cc1 (stereo not given) [Rebamipide]"
reading = 1.03

[[record]]
compound = "C[C@H]1Oc2cc(cnc2N)-c2c(nn(C)c2C#N)CN(C)C(=O)c2ccc(F)cc21"
reading = 1.05

[[record]]
compound = "O=C(Nc1nc2ccc(NC(=O)C34CC5CC(CC(C5)C3)C4)cc2s1)c1ccccc1"
reading = 0.982

[[record]]
compound = "CNC(=O)c1ccc(C)c(-n2c(C)cc(OCc3ccc(F)cc3F)c(Br)c2=O)c1"
reading = 1.04

[[record]]
compound = "N=C(NCCCCCCNC(=N)NC(=N)Nc1ccc(Cl)cc1)NC(=N)Nc1ccc(Cl)cc1 [Chlorhexidine]"
reading = 1.07

[[record]]
compound = "Cc1cc(NC(=O)c2cccc(NC(=O)/C=C/CN(C)C)c2)ccc1Nc1nccc(-c2cccnc2)n1"
reading = 0.942

[[record]]
compound = "COc1ccc(-c2coc3cc(O)ccc3c2=O)cc1O"
reading = 1.07


What does the record list as normalised indicator fluorescence for O=c1cc(-c2ccc(O)c(-c3c(O)cc(O)c4c(=O)cc(-c5ccc(O)cc5)oc34)c2)oc2cc(O)cc(O)c12 ? 1.03

Would you mind doing O=[N+]([O-])c1ccc(-c2nc(-c3ccc(F)cc3)c(-c3ccncc3)[nH]2)cc1 as well? 1.03
